Each recorded value in this set is attributed to patent US7371751B2.

- measurement target: human cannabis CB1 receptor (Homo sapiens, UniProt P21554)
- Construct: expressed in transfected cells; host or cells: human embryonic kidney (HEK) cells, Semliki Forest Virus system, membrane preparation
- Sequence (P21554 whole entry): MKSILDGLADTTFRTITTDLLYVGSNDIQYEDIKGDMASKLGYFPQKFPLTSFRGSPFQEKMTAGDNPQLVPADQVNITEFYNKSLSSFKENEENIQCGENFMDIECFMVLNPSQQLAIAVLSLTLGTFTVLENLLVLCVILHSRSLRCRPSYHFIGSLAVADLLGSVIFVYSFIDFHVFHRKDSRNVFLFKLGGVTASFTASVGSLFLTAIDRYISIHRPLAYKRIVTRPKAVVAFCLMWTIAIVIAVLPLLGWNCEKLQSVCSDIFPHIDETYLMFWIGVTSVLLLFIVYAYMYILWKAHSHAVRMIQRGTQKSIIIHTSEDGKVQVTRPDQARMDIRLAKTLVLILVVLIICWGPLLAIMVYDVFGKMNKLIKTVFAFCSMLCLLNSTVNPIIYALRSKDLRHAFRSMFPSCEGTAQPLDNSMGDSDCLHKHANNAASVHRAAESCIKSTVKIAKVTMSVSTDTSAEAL
- test name: Affinity for cannabinoid CB1 receptors, [3H]-CP-55,940 radioligand binding on HEK cell membrane preparations
- experimental conditions: affinity for the CB1 receptor; [3H]-CP-55,940 as radioligand; HEK cell membranes; read-out: IC50
Reported IC50 by item:
experimental readout: IC50 (nM)

In [3]: df
Out[3]:
                              line_notation  display_unit  endpoint_result
0  COc1ccc(N(C(=O)c2ccccc2Cl)c2nc(C(=O)NC3CCCCC3)cs2)cc1OC            nM              850
1  O=C(c1cnc(N(C(=O)c2ccc(Cl)cc2Cl)c2ccc(Cl)cc2)s1)N1CCSCC1            nM              430
2  CCOC(=O)c1csc(N(C(=O)c2ccc(Cl)cc2Cl)c2ccc(OC)c(OC)c2)n1            nM              510
3  CCCCCN(C)C(=O)c1csc(N(C(=O)c2ccc(Cl)cc2Cl)c2ccc(Cl)cc2)n1            nM              520
4  O=C(NCCc1cnc[nH]1)c1csc(N(C(=O)c2ccc(Cl)cc2Cl)c2ccc(Cl)cc2)n1            nM              810
